Just for reference, patent US20250250357A1 is where these values come from.

Field: pEC50. Provide a value for each of the binders that follow.
target: T1, human MSLN on OVCAR3 tumor cells (human, UniProt Q13421 296-598); assay: FACS, OVCAR3 cells
T1 construct: whole, on cells; also called human MSLN protein
T1 sequence (Q13421 other isoform, or with tags, fused parts or gaps): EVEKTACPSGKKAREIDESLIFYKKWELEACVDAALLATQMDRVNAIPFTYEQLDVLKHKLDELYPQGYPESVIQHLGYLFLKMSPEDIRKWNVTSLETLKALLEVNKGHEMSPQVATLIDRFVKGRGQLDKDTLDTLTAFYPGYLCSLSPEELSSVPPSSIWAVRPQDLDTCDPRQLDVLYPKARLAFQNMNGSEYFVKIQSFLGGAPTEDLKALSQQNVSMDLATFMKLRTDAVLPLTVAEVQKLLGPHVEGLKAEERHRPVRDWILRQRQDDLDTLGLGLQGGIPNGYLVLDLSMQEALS
Numbers only, as −log10 of the molar value.

Solved entries (count: 5):
- binder: "F7.33.24-H4 (scFv, not shown: small tags and cut ends, also called S009-F7.33.24 humanized antibody VH1a + VL1) scFv: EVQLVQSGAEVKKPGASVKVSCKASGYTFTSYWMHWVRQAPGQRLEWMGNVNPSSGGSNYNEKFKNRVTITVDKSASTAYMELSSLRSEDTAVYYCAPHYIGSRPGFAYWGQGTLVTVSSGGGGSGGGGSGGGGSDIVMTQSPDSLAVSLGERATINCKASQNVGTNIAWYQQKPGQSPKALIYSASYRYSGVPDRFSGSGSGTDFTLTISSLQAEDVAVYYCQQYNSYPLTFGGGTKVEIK"
  pEC50: 8.52
- binder: "F7.33.24-H5 (scFv, not shown: small tags and cut ends, also called S009-F7.33.24 humanized antibody VH1a + VL2) scFv: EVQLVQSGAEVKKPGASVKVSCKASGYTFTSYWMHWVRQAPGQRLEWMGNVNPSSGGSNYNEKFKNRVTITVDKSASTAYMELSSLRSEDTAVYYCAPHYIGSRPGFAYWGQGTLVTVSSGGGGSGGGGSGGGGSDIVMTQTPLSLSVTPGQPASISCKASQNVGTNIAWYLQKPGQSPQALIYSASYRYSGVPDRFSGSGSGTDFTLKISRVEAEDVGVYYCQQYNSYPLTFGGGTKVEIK"
  pEC50: 8.56
- binder: "F7.33.24-H1 (scFv, not shown: small tags and cut ends, also called S009-F7.33.24 humanized antibody VH1 + VL1) scFv: EVQLVQSGAEVKKPGASVKVSCKASGYTFTSYWMHWVRQAPGQRLEWMGNVNPSNGGSNYNEKFKNRVTITVDKSASTAYMELSSLRSEDTAVYYCAPHYIGSRPGFAYWGQGTLVTVSSGGGGSGGGGSGGGGSDIVMTQSPDSLAVSLGERATINCKASQNVGTNIAWYQQKPGQSPKALIYSASYRYSGVPDRFSGSGSGTDFTLTISSLQAEDVAVYYCQQYNSYPLTFGGGTKVEIK"
  pEC50: 8.98
- binder: "F7.33.24-H2 (scFv, not shown: small tags and cut ends, also called S009-F7.33.24 humanized antibody VH1 + VL2) scFv: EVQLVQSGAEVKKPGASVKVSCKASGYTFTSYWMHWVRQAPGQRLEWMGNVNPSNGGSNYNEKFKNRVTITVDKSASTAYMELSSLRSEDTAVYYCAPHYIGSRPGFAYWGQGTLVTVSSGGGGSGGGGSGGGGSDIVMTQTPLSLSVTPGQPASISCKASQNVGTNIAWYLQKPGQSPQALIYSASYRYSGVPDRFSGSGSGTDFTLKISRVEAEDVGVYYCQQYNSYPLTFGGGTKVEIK"
  pEC50: 8.68
- binder: "F7.33.24-H11 (scFv, not shown: small tags and cut ends, also called S009-F7.33.24 humanized antibody VH2a + VL2) scFv: EVQLVQSGAEVKKPGASVKVSCKASGYTFTSYWMHWVRQAPGQGLEWMGNVNPSNAGSNYNEKFKNRVTITVDKSASTAYMELSSLRSEDTAVYYCAPHYIGSRPGFAYWGQGTLVTVSSGGGGSGGGGSGGGGSDIVMTQTPLSLSVTPGQPASISCKASQNVGTNIAWYLQKPGQSPQALIYSASYRYSGVPDRFSGSGSGTDFTLKISRVEAEDVGVYYCQQYNSYPLTFGGGTKVEIK"
  pEC50: 8.65

Challenge: Please look up its pEC50: F7.33.24-H8 (scFv, not shown: small tags and cut ends, also called S009-F7.33.24 humanized antibody VH2 + VL2) scFv: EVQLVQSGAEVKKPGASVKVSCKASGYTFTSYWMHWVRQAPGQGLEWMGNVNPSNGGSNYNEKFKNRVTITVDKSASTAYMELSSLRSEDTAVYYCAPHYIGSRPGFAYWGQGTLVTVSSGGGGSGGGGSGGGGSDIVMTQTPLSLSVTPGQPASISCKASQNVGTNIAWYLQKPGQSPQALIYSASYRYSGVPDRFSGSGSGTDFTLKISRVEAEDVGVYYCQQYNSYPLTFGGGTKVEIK
Response given: 8.74
